// read-out IC50, gathered for Platelet-derived growth factor receptor alpha (Homo sapiens) from published studies
Assay Readout: IC50

>>> print(df.to_string())
                                   compound  assay_readout         result
0  C[C@@H]1CN(C(=O)c2ccc(-c3cc4c(s3)Cc3c(-c5ccc6cnn(C)c6c5)n[nH]c3-4)cc2)C[C@H](C)O1           IC50     1 to 10 nM
1  CCN1CCN(c2ccc(Nc3ncc(C)c(Nc4ccc5cn[nH]c5c4)n3)cc2OC)CC1           IC50         2.7 nM
2  Cn1cc(-c2cc(Oc3cc(F)c(NC(=O)C4(C(=O)Nc5ccccc5)CC4)cc3F)ccn2)cn1           IC50     < 10000 nM
3  Cn1ncc2ccc(-c3n[nH]c4c3Cc3sc(-c5ccc(CN6CCOCC6)c(C(F)(F)F)c5)cc3-4)cc21           IC50  100 to 300 nM
4  CCN1CCC(Nc2ccc3c(c2)/C(=C(\c2ccc(C)cc2)c2ncc[nH]2)C(=O)N3)CC1           IC50        < 50 nM
5  Cn1ncc2ccc(-c3n[nH]c4c3Cc3sc(-c5cncc(C(=O)N6CCOCC6)c5)cc3-4)cc21           IC50  100 to 300 nM
6  CC(c1ccc(-c2cc3c(s2)Cc2c(-c4ccc5cnn(C)c5c4)n[nH]c2-3)cc1)N1CCOCC1 (stereo not shown)           IC50     1 to 10 nM

###

// read-out pIC50, gathered for Platelet-derived growth factor receptor alpha (Homo sapiens, UniProt P16234) from published studies
pIC50: −log10 of the molar value.
Assay Readout: pIC50

In [3]: df
Out[3]:
                          compound_structure  assay_readout        result
 0  Cn1ncc2ccc(-c3n[nH]c4c3Cc3sc(-c5ccc(CCN6CCOCC6)cc5)cc3-4)cc21          pIC50  7.52 to 8.00
 1  CCN1CCC(Nc2ccc3c(c2)/C(=C(\c2ccc(F)c(C)c2)c2nc4ccccc4[nH]2)C(=O)N3)CC1          pIC50        > 7.30
 2  C[C@H]1COCCN1Cc1ccc(-c2cc3c(s2)Cc2c(-c4ccc5cnn(C)c5c4)n[nH]c2-3)cc1          pIC50  8.00 to 9.00
 3  COCCN1CCC(Nc2ccc3c(c2)/C(=C(\c2ccc(F)c(F)c2)c2ncc[nH]2)C(=O)N3)CC1          pIC50        > 7.30
 4  Cn1cc(-c2cc(Oc3ccc(NC(=O)C4(C(=O)NCc5ccccc5)CC4)cc3F)ccn2)cn1          pIC50        > 5.00
 5  Cn1ncc2ccc(-c3n[nH]c4c3Cc3sc(-c5ccc(C(=O)N6CCOCC6)c(F)c5)cc3-4)cc21          pIC50  8.00 to 9.00
 6  Cn1ncc2ccc(-c3n[nH]c4c3Cc3sc(-c5cnc(N)nc5)cc3-4)cc21          pIC50  7.52 to 8.00
 7  Cn1ncc2ccc(-c3n[nH]c4c3Cc3sc(-c5ccc(CN6CCC(N7CCOCC7)CC6)cc5)cc3-4)cc21          pIC50  8.00 to 9.00
 8  CCN1CCC(Nc2ccc3c(c2)/C(=C(/c2cc(F)cc(F)c2)c2nc4cc(F)ccc4[nH]2)C(=O)N3)CC1          pIC50        > 7.30
 9  Cn1ncc2ccc(-c3n[nH]c4c3Cc3sc(-c5ccc(CN6CCNC(=O)C6)cc5)cc3-4)cc21          pIC50  8.00 to 9.00
10  C[C@@H]1CN(Cc2cccc(-c3cc4c(s3)Cc3c(-c5ccc6cnn(C)c6c5)n[nH]c3-4)c2)C[C@H](C)O1          pIC50  7.00 to 7.52
11  Cn1ncc2ccc(-c3n[nH]c4c3Cc3sc(-c5ccc(CN6CCOCC6)cn5)cc3-4)cc21          pIC50  8.00 to 9.00
12  CCN1CCC(Nc2ccc3c(c2)/C(=C(/c2nc(C)c[nH]2)c2cc(F)c(Cl)cc2Cl)C(=O)N3)CC1          pIC50        > 7.30
13  Cn1cc(-c2cc(Oc3ccc(NC(=O)C4(C(=O)Nc5ccc(F)cc5)CC4)cc3Cl)ccn2)cn1          pIC50        > 5.70
14  CCN1CCC(Oc2ccc3c(c2)/C(=C(\c2cccc(OC)c2)c2nc4ccccc4[nH]2)C(=O)N3)CC1          pIC50        > 7.30

###

// read-out IC50, gathered for Platelet-derived growth factor receptor alpha (Homo sapiens, UniProt P16234) from published studies
Assay Readout: IC50

>>> df
                          compound_structure                               test_system        result
 0  Cn1ncc2ccc(-c3n[nH]c4c3Cc3sc(-c5ccc(CN6CCCOCC6)cc5)cc3-4)cc21  Platelet-derived growth factor receptor alpha (Homo sapiens, UniProt P16234)  30 to 100 nM
 1  CCN1CCC(Nc2ccc3c(c2)/C(=C(/c2ncc[nH]2)c2cccc(F)c2F)C(=O)N3)CC1  Platelet-derived growth factor receptor alpha (Homo sapiens, UniProt P16234)       < 50 nM
 2  Cc1ccc(-c2cc3c(s2)Cc2c(-c4ccc5cnn(C)c5c4)n[nH]c2-3)cn1  Platelet-derived growth factor receptor alpha (Homo sapiens, UniProt P16234)    1 to 10 nM
 3  CCN1CCC(Nc2ccc3c(c2)/C(=C(\c2ccc(OC)cc2)c2ncc[nH]2)C(=O)N3)CC1  Platelet-derived growth factor receptor alpha (Homo sapiens, UniProt P16234)       < 50 nM
 4  CCN1CCC(Nc2ccc3c(c2)/C(=C(/c2nc(C)c[nH]2)c2ccc(C(F)(F)F)cc2F)C(=O)N3)CC1  Platelet-derived growth factor receptor alpha (Homo sapiens, UniProt P16234)       < 50 nM
 5  Cn1ncc2ccc(-c3n[nH]c4c3Cc3sc(-c5cccc(C(=O)N6CCOCC6)c5)cc3-4)cc21  Platelet-derived growth factor receptor alpha (Homo sapiens, UniProt P16234)    1 to 10 nM
 6  O=C1Nc2ccc(NC3CCNCC3)cc2/C1=C(\c1ccccc1)c1nc2ccccc2[nH]1  Platelet-derived growth factor receptor alpha (Homo sapiens, UniProt P16234)       < 50 nM
 7  CC1(C)CC(Nc2ccc3c(c2)/C(=C(\c2ccccc2)c2nc4ccccc4[nH]2)C(=O)N3)CC(C)(C)N1  Platelet-derived growth factor receptor alpha (Homo sapiens, UniProt P16234)  50 to 500 nM
 8  Cn1ncc2ccc(-c3n[nH]c4c3Cc3sc(-c5ccc(N)nc5)cc3-4)cc21  Platelet-derived growth factor receptor alpha (Homo sapiens, UniProt P16234)    1 to 10 nM
 9  CCN1CCC(Nc2ccc3c(c2)/C(=C(/c2ncc[nH]2)c2cc(F)c(Cl)cc2Cl)C(=O)N3)CC1  Platelet-derived growth factor receptor alpha (Homo sapiens, UniProt P16234)       < 50 nM
10  Cc1c(-c2cc(Oc3cc(F)c(NC(=O)C4(C(=O)Nc5ccc(F)cc5)CC4)cc3F)ccn2)cnn1C  Platelet-derived growth factor receptor alpha (Homo sapiens, UniProt P16234)     < 2000 nM
11  Cn1ncc2ccc(-c3n[nH]c4c3Cc3sc(-c5ccc(CN6CCOCC6=O)cc5)cc3-4)cc21  Platelet-derived growth factor receptor alpha (Homo sapiens, UniProt P16234)    1 to 10 nM
12  Cc1cc(CN2CCOCC2)ccc1-c1cc2c(s1)Cc1c(-c3ccc4cnn(C)c4c3)n[nH]c1-2  Platelet-derived growth factor receptor alpha (Homo sapiens, UniProt P16234)  30 to 100 nM
13  Nc1ccc(-c2cc3c(s2)Cc2c(-c4ccc5[nH]ncc5c4)n[nH]c2-3)cn1  Platelet-derived growth factor receptor alpha (Homo sapiens, UniProt P16234)    1 to 10 nM
14  C[C@H](NC(=O)C1(C(=O)Nc2ccc(Oc3ccnc(-c4cnn(C)c4)c3)c(F)c2)CC1)c1ccccc1  Platelet-derived growth factor receptor alpha (Homo sapiens, UniProt P16234)     < 2000 nM
15  COc1cc(CN2CCOCC2)ccc1-c1cc2c(s1)Cc1c(-c3ccc4cnn(C)c4c3)n[nH]c1-2  Platelet-derived growth factor receptor alpha (Homo sapiens, UniProt P16234)   10 to 30 nM
16  COc1ccc2[nH]c(/C(=C3\C(=O)Nc4ccc(NC5CC(C)(C)NC(C)(C)C5)cc43)c3ccccc3)nc2c1  Platelet-derived growth factor receptor alpha (Homo sapiens, UniProt P16234)  50 to 500 nM
17  CCN1CCC(Nc2ccc3c(c2)/C(=C(\c2cccc(OC)c2)c2nc4ccccc4[nH]2)C(=O)N3)CC1  Platelet-derived growth factor receptor alpha (Homo sapiens, UniProt P16234)       < 50 nM
18  CCN1CCC(Nc2ccc3c(c2)/C(=C(\c2cc(F)cc(F)c2)c2nc4cc(F)ccc4[nH]2)C(=O)N3)CC1  Platelet-derived growth factor receptor alpha (Homo sapiens, UniProt P16234)       < 50 nM
19  CCN1CCC(Nc2ccc3c(c2)/C(=C(\c2cc(F)cc(F)c2)c2ncc[nH]2)C(=O)N3)CC1  Platelet-derived growth factor receptor alpha (Homo sapiens, UniProt P16234)       < 50 nM
20  CCN1CCC(Nc2ccc3c(c2)/C(=C(\c2ccc(F)cc2)c2nc4ccccc4[nH]2)C(=O)N3)CC1  Platelet-derived growth factor receptor alpha (Homo sapiens, UniProt P16234)       < 50 nM
21  Cn1ncc2ccc(-c3n[nH]c4c3Cc3sc(-c5csc(CN6CCOCC6)c5)cc3-4)cc21  Platelet-derived growth factor receptor alpha (Homo sapiens, UniProt P16234)   10 to 30 nM
22  COc1cc(-c2cc3c(s2)Cc2c(-c4ccc5cnn(C)c5c4)n[nH]c2-3)ccc1CN1CCOCC1  Platelet-derived growth factor receptor alpha (Homo sapiens, UniProt P16234)    1 to 10 nM
23  CCN1CCC(Nc2ccc3c(c2)/C(=C(\c2ccc([N+](=O)[O-])cc2)c2nc4ccccc4[nH]2)C(=O)N3)CC1  Platelet-derived growth factor receptor alpha (Homo sapiens, UniProt P16234)       < 50 nM
24  Cn1ncc2ccc(-c3n[nH]c4c3Cc3sc(-c5ccc(CN6CCOCC6)nc5)cc3-4)cc21  Platelet-derived growth factor receptor alpha (Homo sapiens, UniProt P16234)    1 to 10 nM
25  CN1CCN(Cc2ccc(-c3cc4c(s3)Cc3c(-c5ccc6cnn(C)c6c5)n[nH]c3-4)cc2)CC1  Platelet-derived growth factor receptor alpha (Homo sapiens, UniProt P16234)    1 to 10 nM
26  Cn1ncc2ccc(-c3n[nH]c4c3Cc3sc(-c5ccc(CN6CCNCC6=O)cc5)cc3-4)cc21  Platelet-derived growth factor receptor alpha (Homo sapiens, UniProt P16234)    1 to 10 nM
27  O=C1Nc2ccc(NC3CCN(CCN4CCCC4)CC3)cc2/C1=C(\c1cccc(F)c1)c1ncc[nH]1  Platelet-derived growth factor receptor alpha (Homo sapiens, UniProt P16234)       < 50 nM
28  O=C1Nc2ccc(NC3CCNCC3)cc2/C1=C(\c1cccc(F)c1)c1ncc[nH]1  Platelet-derived growth factor receptor alpha (Homo sapiens, UniProt P16234)       < 50 nM
29  CCN1CCC(Nc2ccc3c(c2)/C(=C(\c2ccc(F)c(Cl)c2)c2nc(C)c[nH]2)C(=O)N3)CC1  Platelet-derived growth factor receptor alpha (Homo sapiens, UniProt P16234)       < 50 nM
